# System: HCT-15 colon
# test_description: NCI-60 one-dose screen, 48 h (100 = growth as untreated, 0 = no growth, -100 = all killed)
# condition_info: 10 µM unless noted
Compounds without any hit were thinned out: in the full panel of roughly 83,000, 20% have a hit. Active and inactive are the calls of the source. How the source made its calls: active means growth percent below 10; inactive means the rest.
Each entry below carries its recorded growth.

// known answers, use as guide
In [3]: df
Out[3]:
                                   molecule  measurement_kind  experimental_value
0  Oc1ccc(Cl)c(Nc2nc(SCCN3CCOCC3)nc3c2cnn3CC(Cl)c2ccc(Br)cc2)c1 (centres undefined)            growth      8.41% (active)
1  C#CCN(C)CCCOc1ccc(N(CC)C(=O)c2cc(C(C)C)c(O)cc2O)cc1Cl            growth     -52.8% (active)
2  COc1ccc(-c2nc3ccccc3n2CC(=O)N=Nc2c(O)[nH]c3ccc(OC)cc23)cc1            growth    43.7% (inactive)
3  O=C(CSc1nnc(-c2ccc(-c3nc4ccc(Cl)cc4[nH]3)cc2)o1)Nc1ccc(Cl)cc1            growth      8.62% (active)
4  Cc1ccc(C(=O)Nc2cc(-n3ccnc3C)cc(C(F)(F)F)c2)cc1C#Cc1cnc2cccnn12            growth      5.01% (active)
5  O=C(Nc1ccc(S(=O)(=O)N2CCCCC2)cc1)C(Cl)Cl            growth     103% (inactive)

growth recorded for this molecule, COc1cccc(NC(=O)c2ccc(NC(=O)CCl)s2)c1 , is -29.7% (active)

Recorded result, COc1cc(C2CC(c3ccc(S(=O)(=O)NCCNc4nc(N(C)C)nc(N5CCOCC5)n4)cc3)=Nc3c(N)nc(N)nc3N2)cc(OC)c1OC (centres undefined) , growth: 93.8% (inactive)

Looking up COc1ccc(C2=Nc3c(N)nc(N)nc3NC(c3ccc(Oc4nc(Nc5ccc(F)cc5)nc(N(C)C)n4)c(OC)c3)C2)cc1 (centres undefined) , I found its growth recorded as 48.7% (inactive)

For this molecule ( Cn1cc(-c2cc(N)n3nc(-c4c[nH]c5ccccc45)cc3n2)c2cc(F)ccc21 ), measured growth is -77.5% (active)

Value of measured growth for the entry Cc1nn(-c2ccccc2)c2ncn(CC(=O)N/N=C/c3ccccc3O)c(=O)c12 : 20.8% (inactive)

Sample NS(=O)(=O)c1ccc(Nc2nc(SCC(=O)c3ccc(F)cc3)nc3ccccc23)cc1 ; growth observed: 24.9% (inactive)

Noted for Cc1ccc(C(=O)Nc2ccc(-n3ccnc3)c(C(F)(F)F)c2)cc1C#Cc1cnc2cccnn12 : its growth reads 20.7% (inactive)

Input CN(C)c1nc(NCCNS(=O)(=O)c2ccc(C3=Nc4c(N)nc(N)nc4NC(c4ccc(C(F)(F)F)cc4)C3)cc2)nc(N2CCOCC2)n1 (centres undefined) . Output growth: 53.6% (inactive)

# growth of Cc1nn(-c2ccccc2)c2nc(C)n(CC(=O)N/N=C/c3ccccc3O)c(=O)c12 = 26.7% (inactive)

For record COc1c2c(cc3c1C(CCc1ccccc1)N(C)CC3)OCO2 (centres undefined) the listed growth is 9.64% (active)

----------
# Test system: CCRF-CEM leukemia
# test_description: NCI-60 one-dose screen, 48 h (100 = growth as untreated, 0 = no growth, -100 = all killed)
# condition_info: 10 µM unless noted
# Procedure: Growth inhibition of the CCRF-CEM human tumor cell line is measured as a screen for anti-cancer activity. Cells are grown in 96 well plates and exposed to the test compound for 48 hours. Compounds are tested at a single concentration, which is 10^-5 M for most compounds. The reported endpoint is percent growth (GI% or GIPRCNT), where numbers from 0 - 100% represent growth inhibition, and numbers from -100% - 0 represent cell death. For example, a value of 40 represents 60% growth inhibition. […]
This is part of a sample that, as a whole, favours compounds with a hit. Of some 83,000 tested, about 20% had one in any assay.
measurement_kind: growth (%)
Report only the number, with the unit % understood.

Query Nc1nnc(-c2cncc(Br)c2)c(-c2c[nH]c3ccc(Br)cc23)n1 yields growth of 44.1

Value of growth reported for the molecule COc1cc(CNC(=O)C[C@H](C)CCC=C(C)C)ccc1OCc1cn(-c2ccc(Br)cc2)nn1 is 61.1

Value of measured growth for the entry COc1cc(CNC(=O)C[C@H](C)CCC=C(C)C)ccc1OCc1cn(-c2ccccc2F)nn1 : 97.3

Recorded growth (molecule CCCn1c(NC(=O)c2cccc(C(N)=O)c2)nc2ccc(CN3CCCCC3)cc21 ): 96.4

So for O=C(N/N=C/c1ccc(Br)o1)c1[nH]c2ccc(Br)cc2c1-c1ccccc1 , the logged growth turned out to be 4.07

----------
# Tested on: SNB-75 CNS
# test_description: NCI-60 one-dose screen, 48 h
# condition_info: 10 µM unless noted
The panel holds about 83,000 compounds, 20% with a hit somewhere; the sample as a whole holds those more often. Activity calls are given as the source filed them. How the source made its calls: active means growth percent below 10; inactive means the rest.
Tick one outcome: yes for active, no for inactive

// known answers, use as guide
>>> print(df.to_string())
                                   molecule  label
0  O=C(NNC(=O)c1ccc(OCc2nc3ccc(Cl)cc3[nH]2)cc1)Nc1ccc(Cl)c(Cl)c1     no
1  Cc1oc(-c2ccccc2)nc1CN[C@@H]1C[C@@H]2C[C@H]([C@H]1C)C2(C)C     no
2  CC(Nc1ncnc2ccc(-c3ccc4oc(N)nc4c3)cc12)c1ccccc1 (stereo not drawn)    yes
3  CCCCNC(=S)Nc1ccc(OCc2nc3ccc(Cl)cc3[nH]2)cc1     no
4  COC(=O)c1c(C(=O)OC)c2c3ccccc3c3ccccc3n2c1C(=O)C(F)(F)F     no
5  Cn1cc(-c2cc(N)n3nc(-c4c[nH]c5ccc(Cl)cc45)cc3n2)c2cccnc21    yes

Task item: Name the outcome recorded for CN1CCN(c2ccc3c4c(cccc24)C(=O)N(c2cccc(-c4nn(-c5ccccc5)cc4-c4nc5ccccc5s4)c2)C3=O)CC1 in the assay.
Reply: no

Task item: Assay outcome for CN1CCN(C(=O)Oc2cc3c(c4ccccc24)[C@H](CCl)CN3C(=O)c2cc3cc(OCCCN4CCC4)ccc3[nH]2)[C@@H]2CSSC[C@H]21 : what was it?
Reply: yes

Task item: Could you kindly confirm the outcome this assay logged for Cc1nn(-c2ccccc2)c2ncn(CC(=O)N/N=C/c3ccccc3O)c(=O)c12 ?
Reply: no

Task item: // return assay outcome for O=C(N/N=C/c1c[nH]c2ccccc12)Nc1ccc(F)c(Cl)c1
Reply: no

Task item: How did this test come out for CC1=C(C)C(=O)C(N2CCSCC2)=CC1=O ?
Reply: no

Task item: Status in this test for O=C(N/N=C/c1occc1Br)c1[nH]c2ccc(Br)cc2c1-c1ccccc1 ?
Reply: yes

Task item: Give the logged outcome of this assay for the following molecule: CCCn1c(NC(=O)c2cccc(C(N)=O)c2)nc2cc(CN3CCCCC3)ccc21
Reply: no

Task item: How did this test come out for CS(=O)(=O)Nc1cncc(-c2ccc3ncnc(NCc4ccccc4)c3c2)c1 ?
Reply: yes

Task item: What did this assay record as the result for Nc1nnc(-c2cncc(Br)c2)c(-c2c[nH]c3ccc(Br)cc23)n1 ?
Reply: no

Task item: Hey, what did the test say about CC(C)(C)OC(=O)N1CCC2(CC1)Oc1ccccc1[C@H]1CC(c3ccc(Br)cc3)=NN12 ?
Reply: no

Task item: Hi team, can someone confirm the assay call for Clc1ccc(Nc2nnc(-c3c[nH]c4ccccc34)o2)cc1 ?
Reply: no

----------
# Test system: M14 melanoma
# test_description: NCI-60 one-dose screen, 48 h
# condition_info: 10 µM unless noted
Compounds without any hit were thinned out: in the full panel of roughly 83,000, 20% have a hit. Calls of active or inactive are those of the source. Rule for the calls: active = growth percent below 10; inactive = the rest.
Hi there, use one of these labels in your reply, thanks! T = active, F = inactive

Solved entries:
In [3]: df
Out[3]:
                                   compound  label
0  NS(=O)(=O)c1ccc(Nc2nc(SCC(=O)c3ccc(F)cc3)nc3ccccc23)cc1      F
1  N#Cc1cc(-c2ccc3ncnc(N4CCc5cc(F)c(Cl)cc54)c3c2)cnc1N      F
2  Cn1cc(-c2cc3nc(-c4c[nH]c5ccccc45)cc(N)n3n2)c2ccccc21      T
3  O=C(Cn1c(-c2ccccc2)nc2ccccc21)N=Nc1c(O)[nH]c2ccc(Br)cc12      T
4  Cc1ccc(/C=C/C(=O)c2ccc(S(=O)(=O)NCCNc3nc(N(C)C)nc(N4CCOCC4)n3)cc2)cc1      F

Could you now look at the following compound, please?
Task item: Tell me the assay call for Oc1cncc(-c2ccc3ncnc(N4CCc5cc(F)c(Cl)cc54)c3c2)c1 please.
Reply: F
